# TEST DESCRIPTION: Pharmacokinetics in rats after oral administration of F18
# Assay type: in vivo, Sprague-Dawley rats
# DETAILS: Sprague-Dawley; rat blood, oral F18 50 mg/kg, mean ± SD, n = 5; read-out: MRT0−t
In this section we review reported MRT last values for a set of molecules.
# output: bare number, implied unit h

Please report the recorded MRT last for CCCc1cc(=O)oc2c3c(c4c(c12)OC(C)(C)C=C4)OC(CCl)CC3=O (stereo not shown) [Metabolite F18] .
7.8

What do you get for CCCc1cc(=O)oc2c3c(c4c(c12)OC(C)(C)C=C4)O[C@H](CCl)C[C@H]3O (relative stereo) [Metabolite M3-1, trans-12-hydroxy F18] ?
8.6

What do you get for CCCc1cc(=O)oc2c3c(c4c(c12)OC(C)(C)C=C4)O[C@H](CCl)C[C@@H]3O (relative stereo) [Metabolite M3-2, cis-12-hydroxy F18] ?
8.8

What do you get for CCCc1cc(=O)oc2c3c(c4c(c12)OC(C)(C)C=C4)OC(CO)CC3=O (stereo not shown) [Metabolite M1] ?
8.4
